# maps each entry to its pIC50
- Measurement target: HsNMT1 (Homo sapiens, UniProt P30419)
- Sequence (P30419 1-496): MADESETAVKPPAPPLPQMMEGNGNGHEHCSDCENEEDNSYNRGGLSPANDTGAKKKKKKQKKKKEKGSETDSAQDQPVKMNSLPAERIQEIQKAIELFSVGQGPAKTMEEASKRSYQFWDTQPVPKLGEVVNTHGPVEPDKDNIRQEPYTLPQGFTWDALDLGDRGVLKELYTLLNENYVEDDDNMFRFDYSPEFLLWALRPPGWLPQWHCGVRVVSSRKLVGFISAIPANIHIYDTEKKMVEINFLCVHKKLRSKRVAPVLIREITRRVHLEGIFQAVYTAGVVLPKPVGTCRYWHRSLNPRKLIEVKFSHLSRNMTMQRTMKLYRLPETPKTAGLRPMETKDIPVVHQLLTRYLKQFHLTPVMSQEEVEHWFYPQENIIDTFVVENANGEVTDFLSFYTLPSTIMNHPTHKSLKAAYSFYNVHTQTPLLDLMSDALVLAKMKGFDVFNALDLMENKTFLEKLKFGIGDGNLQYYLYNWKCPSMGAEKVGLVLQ
Expect pIC50 as a plain number equal to -log10 of the molar concentration.

Before answering, review these 3 worked examples.
[[record]]
compound = "Cn1c(CN2CCC(c3cc(F)cc(F)c3)CC2)nc2cc(Cl)ccc21 [PF-03665853]"
parameter = "pIC50"
value = 6.29

[[record]]
compound = "Cc1cc2nc(N(C)C3CCN(C)CC3)nc(N(C)CCC#N)c2s1 [PF-00349412]"
parameter = "pIC50"
value = 5.05

[[record]]
compound = "c1cncc(CCNCc2cccc(-c3cccc(CN4CCc5ncsc5C4)c3)c2)c1 [PF-00075634]"
parameter = "pIC50"
value = 4.44


Let's switch to this compound now.
## Input Please report pIC50 for the following compound: NC(CC(=O)N1CC(CO)C(c2ccc(Cl)cc2)C1)Cc1ccc(Cl)cc1 (stereo not shown) [PF-03402623]
## Output 5.28

---

- Measurement target: HsNMT2 (Homo sapiens, UniProt O60551)
- Sequence (O60551 1-498): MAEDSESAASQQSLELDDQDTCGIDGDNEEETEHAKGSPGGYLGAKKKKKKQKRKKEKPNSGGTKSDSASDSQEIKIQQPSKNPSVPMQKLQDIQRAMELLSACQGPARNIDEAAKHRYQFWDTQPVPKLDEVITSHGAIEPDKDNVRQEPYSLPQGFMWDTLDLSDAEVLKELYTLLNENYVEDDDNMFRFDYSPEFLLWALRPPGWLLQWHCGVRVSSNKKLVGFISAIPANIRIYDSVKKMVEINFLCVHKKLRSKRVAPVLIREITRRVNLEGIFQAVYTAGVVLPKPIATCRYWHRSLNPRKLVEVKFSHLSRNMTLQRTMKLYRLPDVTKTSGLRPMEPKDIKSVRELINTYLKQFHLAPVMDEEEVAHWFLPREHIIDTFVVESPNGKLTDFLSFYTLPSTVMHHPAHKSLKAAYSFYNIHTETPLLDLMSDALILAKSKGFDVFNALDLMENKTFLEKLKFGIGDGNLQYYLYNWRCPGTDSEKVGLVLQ
# maps each entry to its pIC50
Expect pIC50 as a plain number equal to -log10 of the molar concentration.

Before answering, review these 3 worked examples.
[[record]]
input_smiles = "Cc1cc2nc(N(C)C3CCN(C)CC3)nc(N(C)CCC#N)c2s1"
value = 4.94

[[record]]
input_smiles = "c1cncc(CCNCc2cccc(-c3cccc(CN4CCc5ncsc5C4)c3)c2)c1"
value = 4.57

[[record]]
input_smiles = "CNCC(=O)N1CC[C@@H](NC(=O)c2ccccc2C(F)(F)F)C1"
value = 5.80


Let's switch to this molecule now.
## Input Please report pIC50 for the following molecule: Cn1c(CN2CCC(c3cc(F)cc(F)c3)CC2)nc2cc(Cl)ccc21
## Output 6.25
